FYI, the data here is from the Human Domainome abundance scans (Beltran et al. 2025).

Entries and their abundance fitness values follow.
B1: POU domain, class 3, transcription factor 3, residues 408 to 463; numbered along this chain, P20264 (parent)
chain: KKRTSIEVSVKGALESHFLKCPKPSAQEITNLADSLQLEKEVVRVWFCNRRQKEKR

Variants of: B1
Test: abundance fitness (aPCA) (normalised: wild type 0, dead -1); higher = more abundant; growth selection in yeast, the domain comes from the species named
Settings: Homo sapiens
Response field accepts a number only; no unit should be typed.

# variant_key, abundance fitness
rows = [
    ("A13S", -0.079),
    ("I6G", -0.071),
    ("R51G", -0.156),
    ("V42M", 0.084),
    ("E28H", -0.554),
]

So what does the record say about abundance fitness for E15G ? -1.02

So what does the record say about abundance fitness for K53D ? 0.196

So what does the record say about abundance fitness for L38K ? -0.895

So what does the record say about abundance fitness for L19P ? -1.09
